# subject-of-test: KRAS (G12D)-HiBit in AsPc-1-KRAS (G12D)-HiBit-KI cell (Homo sapiens, UniProt P01116, G12D)
# Construct: host or cells: AsPc-1-KRAS (G12D)-HiBit-KI cells (knock-in line)
# Sequence (P01116 1-188 isoform P01116-2 G12D): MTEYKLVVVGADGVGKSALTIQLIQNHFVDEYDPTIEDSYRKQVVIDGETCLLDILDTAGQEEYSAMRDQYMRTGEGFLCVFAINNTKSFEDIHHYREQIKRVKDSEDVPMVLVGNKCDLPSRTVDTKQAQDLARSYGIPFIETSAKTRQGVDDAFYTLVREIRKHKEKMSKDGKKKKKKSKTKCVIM
# assay-text: G12D HiBit assay
# Type: cell-based
# measurement-context: 24 hours compound treatment, absolute DC50, read-out: Average PHA DC50
I'd appreciate it if you could supply DC50 values for the items below.

compound	DC50
C#Cc1c(F)ccc2cccc(-c3ncc4c(N5CC6CCC(C5)N6)nc(OC[C@@]56CCCN5[C@H](COC(=O)N5CCC(OCCc7cccc8c7n(C)c(=O)n8C7CCC(=O)NC7=O)CC5)CC6)nc4c3F)c12 (some centres unmarked)	< 100 nM
C#Cc1c(F)ccc2cccc(-c3ncc4c(N5CC6CCC(C5)N6)nc(OC[C@@]56CCCN5[C@H](COC(=O)N5CC[C@H](CN7CCC(c8ccc9c(c8)n(C)c(=O)n9C8CCC(=O)NC8=O)CC7)C5)CC6)nc4c3F)c12 (some centres unmarked)	< 100 nM

Respectfully, I request DC50 for each entry included below.
1. C#Cc1c(F)ccc2cccc(-c3ncc4c(N5CC6CCC(C5)N6)nc(OC[C@@]56CCCN5[C@H](COC(=O)NC[C@@H]5CN(CCCc7cccc8c7n(C)c(=O)n8C7CCC(=O)NC7=O)CCO5)CC6)nc4c3F)c12 (some centres unmarked)
2. C#Cc1c(F)ccc2cccc(-c3ncc4c(N5CC6CCC(C5)N6)nc(OC[C@@]56CCCN5[C@H](COC(=O)N5CCC(CCn7cc(-c8ccc9c(c8)n(C)c(=O)n9C8CCC(=O)NC8=O)nn7)CC5)CC6)nc4c3F)c12 (some centres unmarked)
3. C#Cc1c(F)ccc2cccc(-c3ncc4c(N5CC6CCC(C5)N6)nc(OC[C@@]56CCCN5[C@H](COC(=O)N5CCC(OC7CN(Cc8cccc9c8n(C)c(=O)n9C8CCC(=O)NC8=O)C7)CC5)CC6)nc4c3F)c12 (some centres unmarked)
4. C#Cc1c(F)ccc2cccc(-c3ncc4c(N5CC6CCC(C5)N6)nc(OC[C@@]56CCCN5[C@H](COC(=O)N5CC(COC7CCN(c8ccc9c(c8)n(C)c(=O)n9C8CCC(=O)NC8=O)CC7)C5)CC6)nc4c3F)c12 (some centres unmarked)

1: ≥ 300 nM; 2: ≥ 300 nM; 3: < 100 nM; 4: < 100 nM

====

# subject-of-test: KRAS (G12D)-HiBit in AsPc-1-KRAS (G12D)-HiBit-KI cell (Homo sapiens, UniProt P01116, G12D)
# Construct: host or cells: AsPc-1-KRAS (G12D)-HiBit-KI cells (knock-in line)
# assay-text: G12D HiBit assay
# Format: cell-based
# measurement-context: 24 hours compound treatment, absolute DC50, read-out: Average PHA DC50
test-readout: DC50

Recorded results for 2 compounds are shown here.
compound	DC50
C#Cc1c(F)ccc2cccc(-c3ncc4c(N5CC6CCC(C5)N6)nc(OC[C@@]56CCCN5[C@H](COC(=O)N5CCC(COC7CN(Cc8cccc9c8n(C)c(=O)n9C8CCC(=O)NC8=O)C7)CC5)CC6)nc4c3F)c12 (stereo partly shown)	100 to 300 nM
C#Cc1c(F)ccc2cccc(-c3ncc4c(N5CC6CCC(C5)N6)nc(OC[C@@]56CCCN5[C@H](COC(=O)NCCCCCCC(=O)N5CCN(c7ccc(N8CCC(=O)NC8=O)cc7)CC5)CC6)nc4c3F)c12	≥ 300 nM

// batch mode: one DC50 value per listed entry
1. C#Cc1c(F)ccc2cccc(-c3ncc4c(N5CC6CCC(C5)N6)nc(OC[C@@]56CCCN5[C@H](COC(=O)N5CC[C@@H](CN7CCC(c8ccc9c(c8)n(C)c(=O)n9C8CCC(=O)NC8=O)CC7)C5)CC6)nc4c3F)c12 (stereo partly shown)
2. C#Cc1c(F)ccc2cccc(-c3ncc4c(N5CC6CCC(C5)N6)nc(OC[C@@]56CCCN5[C@H](COC(=O)N5CCC(OCCCc7cccc8c7n(C)c(=O)n8C7CCC(=O)NC7=O)CC5)CC6)nc4c3F)c12 (stereo partly shown)

1: < 100 nM; 2: < 100 nM
